tested on: U251 CNS; assay: NCI-60 one-dose screen, 48 h; conditions: 10 µM unless noted
About 83,000 compounds went through this panel and 20% of them were active in at least one assay; those are over-represented in the sample as a whole. Active and inactive are the calls of the source. Rule for the calls: active = growth percent below 10; inactive = the rest.
Hi there, use one of these labels in your reply, thanks! 1.0 for active, 0.0 for inactive

INSERT INTO results (molecule, assigned_class) VALUES
  ('COc1ccc(-c2nc3sccn3c2-c2ccnc(NCCCNS(=O)(=O)c3ccc(C)cc3)n2)cc1', 0.0),
  ('O=C(NCCCN1CCN(CCCNC(=O)C2CCCCC2)CC1)C1CCCCC1', 0.0),
  ('CCOC(=O)C1=C(CSC(=S)N(C2CCCCC2)C2CCCCC2)N(C)C(=O)NC1c1ccccc1 (stereo unspecified)', 0.0),
  ('NC(=O)NC(=O)/C=C/C(=O)OCCCl', 0.0),
  ('Cc1cc(C)c(S(=O)(=O)N2CCN(c3cc4c(cc3F)c(=O)c(C(=O)O)cn4C3CC3)CC2)c(C)c1', 0.0);

Exercise: For COc1ccc(C2CC(c3cccs3)=NN2c2ccc(S(=O)(=O)NC(=O)Nc3ccc(C)cc3)cc2)cc1 (stereo unspecified) , what call appears in the results of this test?
Key: 0.0

Exercise: For Nc1nc(N)c2nc(CNc3ccc(C(=O)CC(CCC(=O)O)C(=O)O)cc3)cnc2n1 (stereo unspecified) , what call appears in the results of this test?
Key: 0.0

* * *

Test system: MDA-MB-435 melanoma
Test: NCI-60 one-dose screen, 48 h
Details: 10 µM unless noted
Method: Growth inhibition of the MDA-MB-435 human Melanoma tumor cell line is measured as a screen for anti-cancer activity. Cells are grown in 96 well plates and exposed to the test compound for 48 hours. Compounds are tested at a single concentration, which is 10^-5 M for most compounds. The reported endpoint is percent growth (GI% or GIPRCNT), where numbers from 0 - 100% represent growth inhibition, and numbers from -100% - 0 represent cell death. […]
The panel holds about 83,000 compounds, 20% with a hit somewhere; the sample as a whole holds those more often. Calls of active or inactive are those of the source. How the source made its calls: active means growth percent below 10; inactive means the rest.
Hi there, use one of these labels in your reply, thanks! TRUE (active), FALSE (inactive)

Known results for molecules:
INSERT INTO assay_data (molecule, system_under_test, assigned_class) VALUES
  ('O=C1CCC/C=C\C[C@H]2C=CC(=O)/C2=C/C[C@H](C/C=C\CC(F)(F)F)O1', 'MDA-MB-435 melanoma', 'TRUE'),
  ('CCCCCC/C=C\CCCCCCCCOc1ccc(CCOP(=O)(O)OCC[N+](C)(C)C)cc1', 'MDA-MB-435 melanoma', 'FALSE'),
  ('CCn1cc(C(=O)O)c(=O)c2cc(F)c(N3CCN(S(=O)(=O)c4ccc(OC)c(OC)c4)CC3)cc21', 'MDA-MB-435 melanoma', 'FALSE'),
  ('C=CCOc1ccc(/C(O)=C2\C(=O)C(=O)N(c3nccs3)C2c2ccccc2F)cc1 (stereo not given)', 'MDA-MB-435 melanoma', 'FALSE'),
  ('O=S(=O)(NCCNc1nccc(-c2c(-c3ccccc3)nc3sccn23)n1)c1ccc(O)cc1', 'MDA-MB-435 melanoma', 'FALSE'),
  ('CCCCNC(=O)NS(=O)(=O)c1ccc(N2N=C(c3ccc(C)cc3C)CC2c2ccc(OC)cc2)cc1 (stereo not given)', 'MDA-MB-435 melanoma', 'TRUE'),
  ('COc1ccc(NC(=O)CSc2nc3ccccc3c(=O)n2-c2ccccc2C(F)(F)F)c(OC)c1OC', 'MDA-MB-435 melanoma', 'FALSE'),
  ('COc1ccc2c(c1)C(C)Cc1c(N(C)C)ncnc1N2C (stereo not given)', 'MDA-MB-435 melanoma', 'TRUE');

Exercise: For COc1ccc(/C=C/C(=O)c2ccc(NC(=O)CN3CCN(c4cc5c(cc4F)c(=O)c(C(=O)O)cn5C4CC4)CC3)cc2)cc1 , what call appears in the results of this test?
Key: FALSE
